# studyTarget: OsWRKY34 (Oryza sativa, UniProt Q0JBA9 1-250)
# Sequence (Q0JBA9 entry or part of it): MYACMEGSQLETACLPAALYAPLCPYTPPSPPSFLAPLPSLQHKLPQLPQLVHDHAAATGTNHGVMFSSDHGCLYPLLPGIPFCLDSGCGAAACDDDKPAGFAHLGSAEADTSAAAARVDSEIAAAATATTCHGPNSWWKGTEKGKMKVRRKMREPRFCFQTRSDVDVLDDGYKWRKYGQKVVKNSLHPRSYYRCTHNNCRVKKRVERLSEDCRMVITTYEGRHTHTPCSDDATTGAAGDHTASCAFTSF
# measurementDescription: protein-binding microarray (RPBM); PBS, 2% BSA, 51.3 ng/ul salmon testes DNA, 50 uM zinc acetate, 200 nM TF, 25 C, 1 h; high values mean tight binding
# experimentalParameters: protein: recombinant; tags: N-terminal polyhistidine and DsRed monomer fusion (pET32a); label: CyDye5-dUTP incorporated in the synthesized complementary strand; 3' TTTTT single-stranded linker to array surface; dsDNA, one strand shown
Whole data set: some 68,000 sequences, median “fluorescence intensity (a.u.)” near 9,100, cut for the highest 2% near 16,000. Only a selection was taken, and the highest values are over-represented in it overall.
Each entry below carries its recorded binding signal.

{"biopolymerSequence": "GCGGTGCAGGGCGGTGGCGGCGGCGGGTGGGGCGGTGGCGCGGAGTCACCTAGTGCAG", "binding signal": "20900 fluorescence intensity (a.u.)"}
{"biopolymerSequence": "CTCGCCTGACCCTGTCAAACGCCGGGCCGCGGACCCCGCCCGGAGTCACCTAGTGCAG", "binding signal": "8970 fluorescence intensity (a.u.)"}
{"biopolymerSequence": "CATCTCCGCCGGCCGCCGTCCTCGCCATCTTCGCCGTCCTCGGAGTCACCTAGTGCAG", "binding signal": "12600 fluorescence intensity (a.u.)"}
{"biopolymerSequence": "ACCGTTGACTTTTTAGCACATGATTGATCGTTCGTTTTATCGGAGTCACCTAGTGCAG", "binding signal": "33800 fluorescence intensity (a.u.)"}
{"biopolymerSequence": "ATCATTTGTCTCGCGACGAAAACTTGCGTTGACCACCCACCGGAGTCACCTAGTGCAG", "binding signal": "17500 fluorescence intensity (a.u.)"}
{"biopolymerSequence": "TGCCAGCACAAATCTCGAAGCACATCCAATGATCCAAGACCGGAGTCACCTAGTGCAG", "binding signal": "9540 fluorescence intensity (a.u.)"}
{"biopolymerSequence": "CCTAGTCGGCTTCGCCTCCGCTTCCTCGTCTCGTCTCCCTCGGAGTCACCTAGTGCAG", "binding signal": "8160 fluorescence intensity (a.u.)"}

----------
# studyTarget: OsWRKY34 (Oryza sativa, UniProt Q0JBA9 1-250)
# measurementDescription: protein-binding microarray (RPBM); PBS, 2% BSA, 51.3 ng/ul salmon testes DNA, 50 uM zinc acetate, 200 nM TF, 25 C, 1 h; high values mean tight binding
# experimentalParameters: protein: recombinant; tags: N-terminal polyhistidine and DsRed monomer fusion (pET32a); label: CyDye5-dUTP incorporated in the synthesized complementary strand; 3' TTTTT single-stranded linker to array surface; dsDNA, one strand shown
In all, about 68,000 sequences were measured (“fluorescence intensity (a.u.)”: median about 9,100, highest 2% from about 16,000 on). This excerpt belongs to a sample that is enriched for the highest values.
readout: binding signal

{"biopolymerSequence": "GGCCAATAAGTTCCAGTTCTCTTCTTAAGGCCCATTAGACCGGAGTCACCTAGTGCAG", "readout": "binding signal", "experimentalResult": "61800 fluorescence intensity (a.u.)"}
{"biopolymerSequence": "CGCCGTTGACTTTTTTAAATATGTTTGACCGTTCGTCTTACGGAGTCACCTAGTGCAG", "readout": "binding signal", "experimentalResult": "39400 fluorescence intensity (a.u.)"}
{"biopolymerSequence": "GGTTAGGTTTTTTTATAGAGGGAGTAGTATGCAATTATTTCGGAGTCACCTAGTGCAG", "readout": "binding signal", "experimentalResult": "9450 fluorescence intensity (a.u.)"}
{"biopolymerSequence": "TTGACTTTTTATTAACGTTTGACCATTTGTTTTATTTAAACGGAGTCACCTAGTGCAG", "readout": "binding signal", "experimentalResult": "12000 fluorescence intensity (a.u.)"}
{"biopolymerSequence": "AAGGTGGGGTCATCATAAATATTTTTTAAGTGAAAATTTTCGGAGTCACCTAGTGCAG", "readout": "binding signal", "experimentalResult": "9840 fluorescence intensity (a.u.)"}
{"biopolymerSequence": "GTTCATTTTATAGTCTAGCAAAATTTCCTCTCTTTTTTTTCGGAGTCACCTAGTGCAG", "readout": "binding signal", "experimentalResult": "10700 fluorescence intensity (a.u.)"}
{"biopolymerSequence": "TAGCTCCATTGTTCGATCTCATCTCCCTTAGCTAGCTACTCGGAGTCACCTAGTGCAG", "readout": "binding signal", "experimentalResult": "8130 fluorescence intensity (a.u.)"}
{"biopolymerSequence": "TTATTTTCTCCACTCACTACTTGTTCGTTTAGCAATTTGTCGGAGTCACCTAGTGCAG", "readout": "binding signal", "experimentalResult": "8750 fluorescence intensity (a.u.)"}
{"biopolymerSequence": "TGACTTTTTTAAATATGTTTGACCGTTCGTCTTATTGAAACGGAGTCACCTAGTGCAG", "readout": "binding signal", "experimentalResult": "8190 fluorescence intensity (a.u.)"}
{"biopolymerSequence": "GGTCTTGTCTGTTGTGTTAGCCATTTGTACCAACTCATGACGGAGTCACCTAGTGCAG", "readout": "binding signal", "experimentalResult": "12000 fluorescence intensity (a.u.)"}
{"biopolymerSequence": "TCCTACACCACCCCGTTCTCGCGCCCATCGATCCAACCGACGGAGTCACCTAGTGCAG", "readout": "binding signal", "experimentalResult": "8920 fluorescence intensity (a.u.)"}
{"biopolymerSequence": "CATTCTCTTCTCAACCAATAACAACTCTTCCACCATTCACCGGAGTCACCTAGTGCAG", "readout": "binding signal", "experimentalResult": "9540 fluorescence intensity (a.u.)"}
{"biopolymerSequence": "TGTACGTGACCAGTAACGCGTTGACCTTTTCTTTGTTGAACGGAGTCACCTAGTGCAG", "readout": "binding signal", "experimentalResult": "17000 fluorescence intensity (a.u.)"}
